# measurement_notes: Intrinsic clearance in human liver microsomes at 1 uM
# Format: ADME, Microsome
# protocol_conditions: read-out: CLH
experimental_readout: microsomal CLint at 1 µM (µL/min/mg)

# compound_structure_string, quantitative_readout
data = [
    ("CNC(=O)O[C@@H](CC(C)C)c1nc([C@H]2OC(=O)/C=C/C/C(C)=C/[C@@H](O)[C@@H](C)\\C=C(C)/C=C(C)\\C=C\\[C@@H](O)[C@H](C)[C@H](OC)/C(C)=C/C=C/[C@@H]2C)cs1", 533),
]

====

# system_tested: Neutrophil elastase (Homo sapiens, UniProt P08246)
# Sequence (P08246 whole entry): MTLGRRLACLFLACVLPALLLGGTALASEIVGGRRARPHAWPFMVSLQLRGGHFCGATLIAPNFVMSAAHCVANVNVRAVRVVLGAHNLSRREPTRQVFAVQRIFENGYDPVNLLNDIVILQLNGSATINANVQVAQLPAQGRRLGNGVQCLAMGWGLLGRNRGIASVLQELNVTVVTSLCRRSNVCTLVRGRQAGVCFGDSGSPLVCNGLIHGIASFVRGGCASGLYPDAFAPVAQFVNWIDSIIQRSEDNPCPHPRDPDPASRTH
# measurement_notes: Inhibition of human leukocyte elastase assessed as reduction in pNA release using chromogenic MeO-Suc-Ala-Ala-Pro-Val-pNA substrate measured over 10 mins by spectrophotometry
# protocol_conditions: read-out: IC50
pIC50: −log10 of the molar value.
experimental_readout: pIC50

# compound_structure_string, system_tested, experimental_readout, quantitative_readout
measured = [
    ("CNC(=O)O[C@@H](CC(C)C)c1nc([C@@H](O)[C@@H](C)/C=C/C=C(\\C)[C@@H](OC)[C@@H](C)[C@H](O)/C=C/C(C)=C\\C(C)=C/[C@H](C)[C@H](O)/C=C(C)/C=C/CC(=O)OC)cs1", "Neutrophil elastase (Homo sapiens, UniProt P08246)", "pIC50", 5.63),
    ("CO[C@@H]1/C(C)=C/C=C/CCOC(=O)C/C=C/C(C)=C/[C@@H](O)[C@@H](C)\\C=C(C)/C=C(C)\\C=C\\[C@@H](O)[C@@H]1C", "Neutrophil elastase (Homo sapiens, UniProt P08246)", "pIC50", 5.23),
    ("CNC(=O)O[C@@H](CC(C)C)c1nc([C@H]2OC(=O)C/C=C/C(C)=C/[C@@H](O)[C@@H](C)\\C=C(C)/C=C(C)\\C=C\\[C@@H](O)[C@H](C)[C@H](OC)/C(C)=C/C=C/[C@@H]2C)cs1", "Neutrophil elastase (Homo sapiens, UniProt P08246)", "pIC50", 6.08),
]

====

# measurement_notes: cells
# protocol_conditions: Homo sapiens, 1321-N1, 72 h
# Description: Growth inhibition of human 1321N1 cells incubated for 72 hrs by MTT assay

# compound_structure_string, unit_of_measurement, IC50
records = [
    ("CO/C1=C\\C(C)=C\\[C@@H](C)[C@@H](O)[C@@H](C)C/C(C)=C/C=C/[C@H](OC)[C@@H]([C@@H](C)[C@@H](O)[C@H](C)[C@@]2(O)C[C@@H](O)[C@H](C)[C@@H](C(C)C)O2)OC1=O", "nM", 3.06),
    ("CNC(=O)O[C@@H](CC(C)C)c1nc([C@H]2OC(=O)/C=C/C/C(C)=C/[C@@H](O)[C@@H](C)\\C=C(C)/C=C(C)\\C=C\\[C@@H](O)[C@H](C)[C@H](OC)/C(C)=C/C=C/[C@@H]2C)cs1", "nM", 0.145),
    ("CNC(=O)O[C@@H](CC(C)C)c1nc([C@H]2OC(=O)/C(C)=C/C/C(C)=C/[C@@H](O)[C@@H](C)\\C=C(C)/C=C(C)\\C=C\\[C@@H](O)[C@H](C)[C@H](OC)/C(C)=C/C=C/[C@@H]2C)cs1", "nM", 0.253),
    ("CNC(=O)O[C@@H](CC(C)C)c1nc([C@H]2OC(=O)C/C=C/C(C)=C/[C@@H](O)[C@@H](C)\\C=C(C)/C=C(C)\\C=C\\[C@@H](O)[C@H](C)[C@H](OC)/C(C)=C/C=C/[C@@H]2C)cs1", "nM", 4.51),
]
